- System: UACC-62 melanoma
- assay: NCI-60 one-dose screen, 48 h (100 = growth as untreated, 0 = no growth, -100 = all killed)
- experimental_setup: 10 µM unless noted
This is part of a sample that, as a whole, favours compounds with a hit. Of some 83,000 tested, about 20% had one in any assay.
With a cut-off of 90%, any growth strictly below it is called Condition met; any growth meeting it or above is called Condition not met.

Example cases with answers are listed next.
# input In the record for CCN(CC)c1cc(/C=C/c2ccc(OC)c(OC)c2)nc2cc(F)c(F)cc12 , is growth less than 90%?
# output Condition met

# input In the record for Nc1nc(-c2cc3ccccc3o2)cc(=O)c(=O)[nH]1 , is growth less than 90%?
# output Condition not met

# input In the record for CC1=CNNc2c3ncnc-3ncn21 , is growth less than 90%?
# output Condition not met

Continuing:
# input In the record for Cc1cc(Cl)ccc1OC(C)C(=O)Nc1nnc(C2CC2)s1 (configuration not stated) , is growth less than 90%?
# output Condition met

# input In the record for O=C(Nc1ccc(F)cc1)c1cc([N+](=O)[O-])ccc1O , is growth less than 90%?
# output Condition met

# input In the record for CCOC(=O)CC(C#N)(CC(=O)OCC)C(=O)OCC , is growth less than 90%?
# output Condition not met
